B1: Pituitary-specific positive transcription factor 1, residues 130 to 198; numbered along this chain, P28069 (parent)
chain: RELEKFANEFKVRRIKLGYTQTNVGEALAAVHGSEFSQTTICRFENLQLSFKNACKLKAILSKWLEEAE

Variants of: B1
Assay info: abundance fitness (aPCA) (normalised: wild type 0, dead -1); higher = more abundant; growth selection in yeast, the domain comes from the species named
Measurement conditions: Homo sapiens
abundance fitness below -0.7 gives Criterion not met; abundance fitness at or above it gives Criterion met.

Sample answers from the record:
[[record]]
variant_name = "T40H"
group = "Criterion met"

[[record]]
variant_name = "L17Q"
group = "Criterion not met"

[[record]]
variant_name = "G33C"
group = "Criterion not met"


Query: Answer whether abundance fitness of K11S is greater than or equal to -0.7.
Result: Criterion met

Query: Okay, and A59M ?
Result: Criterion met

Query: Same read-out for F10A ?
Result: Criterion not met

Query: Try the variant V12E
Result: Criterion met

Query: Also K52R ?
Result: Criterion met
